Listed next: entries and their corresponding residual activity.
# Tested on: MAP2K6 (human), P52564 [S207E/T211E]
# Sequence (P52564 whole entry S207E/T211E, looked up): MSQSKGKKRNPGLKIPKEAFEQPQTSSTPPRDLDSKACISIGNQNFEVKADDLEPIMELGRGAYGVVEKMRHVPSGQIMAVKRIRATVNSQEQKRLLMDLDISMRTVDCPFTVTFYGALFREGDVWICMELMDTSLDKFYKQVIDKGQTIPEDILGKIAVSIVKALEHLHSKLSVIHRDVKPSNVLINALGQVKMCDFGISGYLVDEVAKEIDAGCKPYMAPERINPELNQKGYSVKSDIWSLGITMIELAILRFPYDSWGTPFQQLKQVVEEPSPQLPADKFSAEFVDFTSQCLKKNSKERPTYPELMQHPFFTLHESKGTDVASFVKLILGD
# experimentNotes: radiometric filter-binding kinase assay, Kinase HotSpot
# measurementContext: compound 0.5 µM; ATP 10 µM
testReadout: residual activity (%)

CCCC(=O)Oc1ccc2[nH]c(C(=O)c3cc4ccccc4[nH]3)cc2c1 : 97.3
Nc1ncnc2c1c(-c1ccc(Oc3ccccc3)cc1)cn2C1CCCC1 : 99.3
CC[n+]1c(/C=C/N(C)c2ccccc2)n(-c2ccccc2)c2ccc(-c3nc4ccccc4s3)cc21 : 103
COc1ccc(COc2ccc(Cc3cnc(N)nc3N)cc2OC)cc1 : 87.4
COc1ccc2c(c1)c(C1=C(c3c[nH]c4ccccc34)C(=O)NC1=O)cn2CCCN(C)C : 91.6
CC(C)(C)c1nc2c3ccc(F)cc3c3c(=O)[nH]ccc3c2[nH]1 : 89
c1ccc2c(-c3ccncc3)c[nH]c2c1 : 106
Cc1[nH]c(/C=C2\C(=O)Nc3ccc(S(=O)(=O)N(C)c4cccc(Cl)c4)cc32)c(C)c1C(=O)N1CCN(C)CC1 : 91.9
Cn1sc(=O)n(Cc2ccccc2)c1=O : 94.9
O=C1Nc2ccc(Cl)cc2/C1=C/c1cc(Cl)c(O)c(Cl)c1 : 96.4
Fc1ccc(-c2nc3n(c2-c2ccncc2)CCS3)cc1 : 104
CC(C)(C)c1cc(C=C(C#N)C#N)cc(Br)c1O : 107
O=C(Nc1ccc(Cl)cc1)c1ccccc1NCc1ccncc1 : 117
Nc1nc(Nc2ccc(S(N)(=O)=O)cc2)nn1C(=O)c1c(F)cccc1F : 90.5
COc1ccc2c(c1)/C(=C/c1cnc[nH]1)C(O)=N2 : 90.1
Cc1nc(-c2ccccc2)c(-c2ccncc2)o1 : 99.3
N#C/C(=C(/N)Sc1ccc(N)cc1)c1ccccc1C(F)(F)F : 97.5
